Data origin: PubChem BioAssay (NCI)

test system: OVCAR-4 ovarian; assay: NCI-60 one-dose screen, 48 h; settings: 10 µM unless noted
Compounds without any hit were thinned out: in the full panel of roughly 83,000, 20% have a hit. Active and inactive are the calls of the source. The calls were made as follows: active = growth percent below 10; inactive = the rest.
Pick one: true (1) (active), false (0) (inactive)

Compound: CCc1[nH]nc(-c2ccc(OC)cc2)c1-c1ccccc1OCCN(CC)CC
Group: false (0)

In: Assay result, entry CCOC(=O)C1=NN(c2ccc(Cl)cc2)C2C3N(c4ccc(Cl)cc4)N=C(C(=O)OCC)N3c3ccccc3N12 (stereo unspecified) — outcome?
Out: false (0)

In: Assay result, entry "COc1ccc2c(c1)C(=O)c1c-2c(OCCCN(C)C)nc2cc(Br)ccc12" — outcome?
Out: false (0)

In: Assay result, entry "COc1ccc(OC)c(/C=C/c2nc(=S)n(-c3ccc(Cl)cc3)[nH]2)c1" — outcome?
Out: false (0)
